test: Half-lives and pharmacokinetic parameters of polypeptides vs HM-1; settings: in vivo; read-out: T1/2β (half-life) (converted)
Peptide text beside a SMILES is read from it. * marks the point of attachment. Propanoyl(3-maleimido) = O=C1C=CC(=O)N1CCC(=O)*; X42 = O=C1C=CC(=O)N1CCOCCC(=O)*
Observed Property: half-life (h)
Give bare numbers, in h.

These solved cases illustrate the format of a correct answer.
Molecule	Observed Property	Endpoint Unit	Test Value
C[C@H](NC(=O)CNC(=O)[C@H](CCCNC(=N)N)NC(=O)CCOCCN1C(=O)C=CC1=O)C(=O)N[C@@H](CC(=O)O)C(=O)N[C@@H](CCCNC(=N)N)C(=O)N[C@@H](C)C(=O)NCC(=O)NCC(=O)NCC(=O)NCC(=O)N[C@@H](CCCNC(=N)N)C(=O)NCC(=O)N[C@@H](CC(=O)O)C(=O)O [X50] (X42-RGADRAGGGGRGD-OH)	half-life	h	33.3
C[C@H](NC(=O)[C@H](CCCNC(=N)N)NC(=O)[C@H](CC(=O)O)NC(=O)CNC(=O)[C@H](CCCNC(=N)N)NC(=O)CCN1C(=O)C=CC1=O)C(=O)NCC(=O)NCC(=O)NCC(=O)NCC(=O)N[C@@H](CCCNC(=N)N)C(=O)NCC(=O)N[C@@H](CC(=O)O)C(=O)O [P7] ({Propanoyl(3-maleimido)}-RGDRAGGGGRGD-OH; C-terminus assumed)	half-life	h	39.6

Next, consider the following molecule.
Look up half-life of C[C@H](NC(=O)CNC(=O)[C@H](CCCNC(=N)N)NC(=O)CCN1C(=O)C=CC1=O)C(=O)N[C@@H](CC(=O)O)C(=O)N[C@@H](CCCNC(=N)N)C(=O)N[C@@H](C)C(=O)NCC(=O)N[C@@H](CO)C(=O)N[C@@H](CO)C(=O)N[C@@H](CO)C(=O)N[C@@H](CO)C(=O)N[C@@H](CCCNC(=N)N)C(=O)NCC(=O)N[C@@H](CC(=O)O)C(=O)O [P13] ({Propanoyl(3-maleimido)}-RGADRAGSSSSRGD-OH; C-terminus assumed) and report it.
3940
